experiment: Inhibition of Bos taurus (bovine) heart cAMP-dependent phosphodiesterase assessed as inhibition of cyclic AMP to 5' AMP after 20 min by spectrophotometry
Entries and their measured pIC50 follow.
Lab note — pIC50 values are minus log10 of concentrations in M.

Recorded pIC50, per entry:
[[record]]
entry_smiles = "CCOc1cccc2sc(-n3c(-c4ccccc4)nc4ccccc4c3=O)nc12"
reported_metric = "pIC50"
test_value = 2.62

[[record]]
entry_smiles = "Cc1ccc2sc(-n3c(-c4ccccc4)nc4ccccc4c3=O)nc2c1"
reported_metric = "pIC50"
test_value = 2.64

[[record]]
entry_smiles = "CCOc1ccc2nc(-n3c(-c4ccccc4)nc4c(Br)cc(Br)cc4c3=O)sc2c1"
reported_metric = "pIC50"
test_value = 2.67


QUERY: Recorded pIC50 for Cc1cc(C)c2nc(-n3c(-c4ccccc4)nc4c(Br)cc(Br)cc4c3=O)sc2c1 , please?
RESULT: 2.68

QUERY: Now try O=c1c2cc(Br)cc(Br)c2nc(-c2ccccc2)n1-c1nc2ccc([N+](=O)[O-])cc2s1 .
RESULT: 2.82

QUERY: Now try O=c1c2cc(Br)cc(Br)c2nc(-c2ccccc2)n1-c1nc2ccc(Br)cc2s1 .
RESULT: 2.79

QUERY: Now try Cc1cc(C)c2nc(-n3c(-c4ccccc4)nc4ccccc4c3=O)sc2c1 .
RESULT: 2.62

QUERY: Now try Cc1cccc2sc(-n3c(-c4ccccc4)nc4ccccc4c3=O)nc12 .
RESULT: 2.64

QUERY: Now try CCOc1cccc2sc(-n3c(-c4ccccc4)nc4c(Br)cc(Br)cc4c3=O)nc12 .
RESULT: 2.66

QUERY: Now try CCOc1ccc2sc(-n3c(-c4ccccc4)nc4c(Br)cc(Br)cc4c3=O)nc2c1 .
RESULT: 2.67

QUERY: Now try O=c1c2ccccc2nc(-c2ccccc2)n1-c1nc2cc(Cl)ccc2s1 .
RESULT: 2.68

QUERY: Now try Cc1ccc2sc(-n3c(-c4ccccc4)nc4c(Br)cc(Br)cc4c3=O)nc2c1 .
RESULT: 2.69

QUERY: Now try O=c1c2cc(Br)cc(Br)c2nc(-c2ccccc2)n1-c1nc2ccccc2s1 .
RESULT: 2.72
